Protocol description: in vitro
Assay conditions: rat, gh3-tre-luc cells, AC50 (uM) modified / 1000, Tox21_110001=Tox21_201860; viability, 1 nM T3 present, 24 h

Molecule | CC50 at 24 h
CCCN(CCC)N=O [N-Nitrosodipropylamine] | > 90 µM

* * *

Protocol description: in vitro
Assay conditions: rat, gh3-tre-luc cells, AC50 (uM) modified / 1000, Tox21_110001=Tox21_111052; viability, 1 nM T3 present, 24 h
Measurement name: CC50 at 24 h

Compound | Measurement name | Test result
COP(=O)(OC)OC=C(Cl)Cl [Dichlorvos] | CC50 at 24 h | > 50 µM
